# measurement target: nAChR formed by the α7 subunit isoform (Rattus norvegicus)
# Sequence (Q05941 23-502): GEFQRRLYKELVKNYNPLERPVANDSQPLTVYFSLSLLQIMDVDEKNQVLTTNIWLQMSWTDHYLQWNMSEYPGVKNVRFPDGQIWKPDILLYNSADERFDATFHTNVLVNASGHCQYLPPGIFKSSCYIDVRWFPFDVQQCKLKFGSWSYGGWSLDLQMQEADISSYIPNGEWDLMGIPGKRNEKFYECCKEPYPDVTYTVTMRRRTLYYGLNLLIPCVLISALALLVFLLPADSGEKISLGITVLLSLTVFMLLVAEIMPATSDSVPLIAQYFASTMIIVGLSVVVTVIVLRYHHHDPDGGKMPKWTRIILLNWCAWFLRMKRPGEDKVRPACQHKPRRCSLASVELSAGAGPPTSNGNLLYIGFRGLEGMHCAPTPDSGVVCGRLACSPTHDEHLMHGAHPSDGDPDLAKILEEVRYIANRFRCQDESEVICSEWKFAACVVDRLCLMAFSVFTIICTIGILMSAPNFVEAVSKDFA
# measurement description: biochemical
# Type: binding
Catalogue of log10(IC50) readings, one per entry.
endpoint label: log10(IC50) (log10 of the value in nM)

compound | recorded result
CN1C2C=C(c3cccc(N)c3)CC1CCC2.O=C(O)/C=C/C(=O)O (racemic) [Compound 1c] | 2.34
CN1C2C=C(c3cc4ccccc4o3)CC1CCC2 (racemic) [Compound 4a] | 2.28
CN1C2C=C(c3ccc4ccccc4c3)CC1CCC2 (racemic) [Compound 8c] | 2.57
CN1C2C=C(c3cnc4ccccc4c3)CC1CCC2.O=C(O)/C=C/C(=O)O (racemic) [Compound 6b] | 2.54
CN1C2C=C(c3cc4ccccc4o3)CC1CCC2.O=C(O)/C=C/C(=O)O (racemic) [Compound 7c] | 2.28
CN1C2C=C(c3cc4ccccc4s3)CC1CCC2 (racemic) [Compound 7a] | 2.20
CN1C2C=C(c3cccc(N4CCCC4)c3)CC1CCC2 (racemic) [Compound 3c] | 4.26

* * *

Catalogue of melting point readings, one per entry.
Where a name gives a salt, the structure may show the parent alone.

molecule | melting point
CN1C2C=C(c3cccc([N+](=O)[O-])c3)CC1CCC2.O=C(O)/C=C/C(=O)O (racemic) | 133 to 144 °C
CC(=O)Nc1cccc(C2=CC3CCCC(C2)N3C)c1.CC(=O)O (racemic) | 59.9 to 63.4 °C
CN1C2C=C(c3ccoc3)CC1CCC2.O=C(O)/C=C/C(=O)O (racemic) | 167 to 174 °C
CN1C2C=C(c3cccc(N)c3)CC1CCC2.O=C(O)/C=C/C(=O)O (racemic) | 174 to 180 °C
CN1C2C=C(c3cccnc3)CC1CCC2.O=C(O)/C=C/C(=O)O (racemic) | 164.5 to 166.5 °C
CN1C2C=C(c3cccc4ncccc34)CC1CCC2 (racemic) | 142 to 144 °C
COc1cncc(C2=CC3CCCC(C2)N3C)c1 (racemic) (as salt: fumaric acid salt) | 125 to 126.5 °C
CN1C2C=C(c3ccc4ccccc4c3)CC1CCC2 (racemic) (as salt: oxalic acid salt) | 87.9 to 92.2 °C
C1=C(c2cccnc2)CC2CCCC1N2Cc1ccccc1.O=C(O)/C=C/C(=O)O (racemic) | 186 to 187 °C
CCN1C2C=C(c3cccnc3)CC1CCC2.O=C(O)/C=C/C(=O)O (racemic) | 193 to 195 °C

* * *

Catalogue of pIC50 readings, one per entry.
# measurement target: nAChRs comprised of α4 and β2 subunits (Rattus norvegicus, UniProt P09483+P12390)
# Sequence (P09483 31-630): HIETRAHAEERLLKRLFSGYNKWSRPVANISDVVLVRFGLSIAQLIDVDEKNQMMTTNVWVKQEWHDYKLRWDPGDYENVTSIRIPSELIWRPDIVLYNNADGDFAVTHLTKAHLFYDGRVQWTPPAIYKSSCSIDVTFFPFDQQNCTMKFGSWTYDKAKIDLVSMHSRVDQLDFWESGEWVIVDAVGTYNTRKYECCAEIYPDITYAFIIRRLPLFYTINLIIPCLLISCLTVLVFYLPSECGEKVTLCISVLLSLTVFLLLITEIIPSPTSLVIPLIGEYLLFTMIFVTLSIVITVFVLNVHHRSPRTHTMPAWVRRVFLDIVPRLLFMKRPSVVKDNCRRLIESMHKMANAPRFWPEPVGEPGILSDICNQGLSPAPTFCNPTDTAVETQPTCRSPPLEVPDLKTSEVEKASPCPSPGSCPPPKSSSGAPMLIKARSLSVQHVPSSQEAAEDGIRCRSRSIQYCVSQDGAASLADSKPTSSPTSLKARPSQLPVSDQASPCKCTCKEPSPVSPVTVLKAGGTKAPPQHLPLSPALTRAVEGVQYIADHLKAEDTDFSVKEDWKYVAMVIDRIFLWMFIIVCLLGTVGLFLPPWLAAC
# Sequence (P12390 25-500): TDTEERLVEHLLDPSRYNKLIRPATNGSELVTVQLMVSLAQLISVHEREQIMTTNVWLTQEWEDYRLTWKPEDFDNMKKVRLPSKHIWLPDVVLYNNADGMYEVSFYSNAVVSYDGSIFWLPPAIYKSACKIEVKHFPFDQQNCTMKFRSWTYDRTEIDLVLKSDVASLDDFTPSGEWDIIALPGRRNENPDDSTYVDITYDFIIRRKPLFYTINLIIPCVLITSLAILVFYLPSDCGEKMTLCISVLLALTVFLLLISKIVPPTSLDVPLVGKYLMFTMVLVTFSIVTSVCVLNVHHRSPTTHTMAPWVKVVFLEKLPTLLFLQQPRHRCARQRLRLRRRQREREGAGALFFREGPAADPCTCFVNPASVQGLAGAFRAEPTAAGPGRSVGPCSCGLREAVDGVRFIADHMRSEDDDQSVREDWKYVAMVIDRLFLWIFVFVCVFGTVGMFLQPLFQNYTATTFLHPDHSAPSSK
# measurement description: In vitro inhibition of 3H-cytisine binding
# study conditions: rat cerebral cortex homogenate, 1 nM 3H-cytisine, 90 min at 2° C.; read-out: 3H-cytisine IC50
pIC50: −log10 of the molar value.
endpoint label: pIC50

molecule | comparison symbol | recorded result
CN1C2C=C(c3cc4ccccc4o3)CC1CCC2.O=C(O)/C=C/C(=O)O (racemic) | < | 3.52
CN1C2C=C(c3cccc(N)c3)CC1CCC2.O=C(O)/C=C/C(=O)O (racemic) | = | 7.40
CN1C2C=C(c3ccc4ccccc4c3)CC1CCC2 (racemic) | < | 3.52
COc1cncc(C2=CC3CCCC(C2)N3)c1 (racemic) | = | 8.52

* * *

Where a name gives a salt, the structure may show the parent alone.

compound | melting point
C1=C(c2cccnc2)CC2CCCC1N2 (racemic) (as salt: fumaric acid salt) [Compound 11c] | 188.5 to 190 °C
CN1C2C=C(c3cncc(-c4ccccc4)c3)CC1CCC2 (racemic) (as salt: fumaric acid salt) | 147.5 to 149.5 °C
CN1C2C=C(c3cncc(-c4ccc(Oc5ccccc5)cc4)c3)CC1CCC2.O=C(O)/C=C/C(=O)O (racemic) | 166 to 168 °C
CN1C2C=C(c3cc4ccccc4o3)CC1CCC2.O=C(O)/C=C/C(=O)O (racemic) | 184 to 186 °C
